# SUBJECT_OF_TEST: human complement protein C3
Below: a set of entries, each annotated with reported ED50 80% human plasma (60 min, nM), C3 cleavage.
READOUT_KIND: ED50 80% human plasma (60 min, nM), C3 cleavage

PROTEIN | MEASUREMENT_UNITS | DATA_VALUE
I41R/F97T/Ins97aE/T98G/F99L/C122S/G151N/Q175L/Q192E (protein) VVGGTDADEGEWPWQVSLHALGQGHRCGASLISPNWLVSAAHCYIDDRGFRYSDPTQWTAFLGLHDQSQRSAPGVQERRLKRIISHPFFNDTEGLDYDIALLELEKPAEYSSMVRPISLPDASHVFPAGKAIWVTGWGHTQYGGTNALILQKGEIRVINQTTCENLLPQLITPRMMCVGFLSGGVDSCEGDSGGPLSSVEADGRIFQAGVVSWGDGCAQRNKPGVYTRLPLFRDWIKENTGV | nM | 835
Q38H/I41S/D60bT/F60eS/Y60gW/F97D/ins97aV/T98P/F99L/C122S/G151H/Q175L/Q192D (protein) VVGGTDADEGEWPWQVSLHALGHGHSCGASLISPNWLVSAAHCYIDTRGSRWSDPTQWTAFLGLHDQSQRSAPGVQERRLKRIISHPFFNDDVPLDYDIALLELEKPAEYSSMVRPISLPDASHVFPAGKAIWVTGWGHTQYGGTHALILQKGEIRVINQTTCENLLPQLITPRMMCVGFLSGGVDSCDGDSGGPLSSVEADGRIFQAGVVSWGDGCAQRNKPGVYTRLPLFRDWIKENTGV | nM | 50
Q38H/I41S/D60bT/F60eS/Y60gW/F97D/ins97aV/T98P/F99L/C122S/G151N/Q175L/Q192D (protein) VVGGTDADEGEWPWQVSLHALGHGHSCGASLISPNWLVSAAHCYIDTRGSRWSDPTQWTAFLGLHDQSQRSAPGVQERRLKRIISHPFFNDDVPLDYDIALLELEKPAEYSSMVRPISLPDASHVFPAGKAIWVTGWGHTQYGGTNALILQKGEIRVINQTTCENLLPQLITPRMMCVGFLSGGVDSCDGDSGGPLSSVEADGRIFQAGVVSWGDGCAQRNKPGVYTRLPLFRDWIKENTGV | nM | 41
Q38H/I41S/D60bT/F60eS/Y60gW/D96K/F97D/ins97aA/T98P/F99L/C122S/G151H/Q175L/Q192D (protein) VVGGTDADEGEWPWQVSLHALGHGHSCGASLISPNWLVSAAHCYIDTRGSRWSDPTQWTAFLGLHDQSQRSAPGVQERRLKRIISHPFFNKDAPLDYDIALLELEKPAEYSSMVRPISLPDASHVFPAGKAIWVTGWGHTQYGGTHALILQKGEIRVINQTTCENLLPQLITPRMMCVGFLSGGVDSCDGDSGGPLSSVEADGRIFQAGVVSWGDGCAQRNKPGVYTRLPLFRDWIKENTGV | nM | 34
Q38H/I41A/D60bT/F60eK/Y60gW/F97T/ins97aE/T98G/F99L/C122S/G151N/Q175L/Q192D (protein) VVGGTDADEGEWPWQVSLHALGHGHACGASLISPNWLVSAAHCYIDTRGKRWSDPTQWTAFLGLHDQSQRSAPGVQERRLKRIISHPFFNDTEGLDYDIALLELEKPAEYSSMVRPISLPDASHVFPAGKAIWVTGWGHTQYGGTNALILQKGEIRVINQTTCENLLPQLITPRMMCVGFLSGGVDSCDGDSGGPLSSVEADGRIFQAGVVSWGDGCAQRNKPGVYTRLPLFRDWIKENTGV | nM | 65
